Biological target: Discoidin domain-containing receptor 2 (Homo sapiens, UniProt Q16832); note: in the data inactive means no Kd found up to 30 µM
Sequence (Q16832 whole entry): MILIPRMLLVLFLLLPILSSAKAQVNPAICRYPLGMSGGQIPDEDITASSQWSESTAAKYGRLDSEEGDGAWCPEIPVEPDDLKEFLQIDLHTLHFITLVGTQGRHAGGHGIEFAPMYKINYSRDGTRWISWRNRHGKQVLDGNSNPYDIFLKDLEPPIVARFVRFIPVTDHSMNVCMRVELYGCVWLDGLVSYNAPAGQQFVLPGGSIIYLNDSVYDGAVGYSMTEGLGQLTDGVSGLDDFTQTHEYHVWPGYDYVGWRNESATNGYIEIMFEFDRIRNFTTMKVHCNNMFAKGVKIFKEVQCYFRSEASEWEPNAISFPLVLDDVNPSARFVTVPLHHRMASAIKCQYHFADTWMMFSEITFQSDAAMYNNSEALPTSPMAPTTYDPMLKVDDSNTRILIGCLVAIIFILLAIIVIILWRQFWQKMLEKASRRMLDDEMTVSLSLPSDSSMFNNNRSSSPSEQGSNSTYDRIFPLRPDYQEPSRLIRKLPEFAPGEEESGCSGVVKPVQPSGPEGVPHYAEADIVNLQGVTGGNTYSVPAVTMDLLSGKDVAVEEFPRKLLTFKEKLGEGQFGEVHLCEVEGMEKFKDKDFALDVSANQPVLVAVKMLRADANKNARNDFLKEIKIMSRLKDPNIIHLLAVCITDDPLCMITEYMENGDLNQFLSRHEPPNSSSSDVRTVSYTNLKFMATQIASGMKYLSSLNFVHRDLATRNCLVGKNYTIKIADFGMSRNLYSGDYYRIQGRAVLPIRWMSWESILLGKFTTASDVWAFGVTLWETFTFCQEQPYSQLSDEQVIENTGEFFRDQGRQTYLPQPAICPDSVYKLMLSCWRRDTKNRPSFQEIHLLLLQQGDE
The source made the active and inactive calls.
Hello, when you answer, please use one of the following outcomes: 1 (active), -1 (inactive)

Examples from the recorded data:
molecule=CN1CCC(CNc2ccc3ncc(-c4cccc(OC(F)(F)F)c4)n3n2)CC1 class_label=-1
molecule=CCN1CCN(Cc2ccc(-c3cc4c(N[C@H](C)c5ccccc5)ncnc4[nH]3)cc2)CC1 class_label=1
molecule=CO[C@H]1C[C@@H]2CC[C@@H](C)[C@@](O)(O2)C(=O)C(=O)N2CCCC[C@H]2C(=O)O[C@H]([C@H](C)C[C@@H]2CC[C@@H](OCCO)[C@H](OC)C2)CC(=O)[C@H](C)/C=C(\C)[C@@H](O)[C@@H](OC)C(=O)[C@H](C)C[C@H](C)/C=C/C=C/C=C/1C class_label=-1
molecule="CN1N=C(N)c2cn([C@@H]3O[C@H](COP(=O)(O)O)[C@@H](O)[C@H]3O)c3ncnc1c23 [TRICIRIBINE PHOSPHATE]" class_label=-1
molecule=O=C(O)[C@]1(Cc2cccc(Nc3nccs3)n2)CC[C@@H](Oc2cccc(Cl)c2F)CC1 class_label=-1

input: What did this assay record as the result for CN(C)C(=O)c1cc2cnc(Nc3ccc(N4CCNCC4)cn3)nc2n1C1CCCC1 ?
output: -1

input: What did this assay record as the result for Cc1ccc(S(=O)(=O)Nc2nc3ccccc3nc2Nc2ccc3nsnc3c2)cc1 ?
output: -1

input: What did this assay record as the result for Cc1ccc(-n2nc(C(C)(C)C)cc2NC(=O)NCc2cc(F)ccc2Oc2ccc3c(cnn3CCO)c2)cc1 ?
output: 1

input: What did this assay record as the result for O=C(Nc1cccc(Cl)c1)Nc1ncc(CCNc2ncnc3ccsc23)s1 ?
output: 1

input: What did this assay record as the result for O=C(c1ccc(F)c(F)c1Nc1ccc(I)cc1F)N1CC(O)([C@@H]2CCCCN2)C1 ?
output: -1
